- system.under.test: hTAS1R1/rTAS1R3 (UniProt Q7RTX1+Q923K1)
- Construct: UniProtKB number Q7RTX1–1); The cDNA coding region of rTAS1R3 was synthesized with optimized-codon usage for human expression; expressed in transfected cells; host or cells: HEK293T/17 (ATCC CRL-11268)
- assay.notes: Calcium assay (GCaMP6s, Gα15i2) in transiently transfected HEK293T/17 cells
- Format: cell-based, human, rat
- details: WT; GSH alone; Fig. 4C
pEC50: −log10 of the molar value.
value.kind: pEC50

{"molecule.smiles": "N[C@@H](CCC(=O)N[C@@H](CS)C(=O)NCC(=O)O)C(=O)O", "system.under.test": "hTAS1R1/rTAS1R3 (UniProt Q7RTX1+Q923K1)", "val": 2.37}

---

- system.under.test: hTAS1R1 R277A/rTAS1R3 (Homo sapiens, UniProt Q7RTX1, R277A)
- Construct: UniProtKB number Q7RTX1–1)
- assay.notes: Calcium assay, hTAS1R1 mutant co-expressed with rTAS1R3
pEC50: −log10 of the molar value.
value.kind: pEC50

{"compound": "N[C@@H](CCC(=O)N[C@@H](CS)C(=O)NCC(=O)O)C(=O)O [GSH, γ-L-glutamyl-L-cysteinyl-glycine]", "val": 2.73}

---

- system.under.test: hTAS1R1 Q278A/rTAS1R3 (Homo sapiens, UniProt Q7RTX1, Q278A)
- Construct: expressed in transfected cells; host or cells: HEK293T/17 (ATCC CRL-11268)
- assay.notes: Calcium assay, hTAS1R1 mutant co-expressed with rTAS1R3
- Type: cell-based, rat
value.kind: EC50

{"molecule.smiles": "N[C@@H](CCC(=O)N[C@@H](CS)C(=O)NCC(=O)O)C(=O)O", "system.under.test": "hTAS1R1 Q278A/rTAS1R3 (Homo sapiens, UniProt Q7RTX1, Q278A)", "val": "3.42 mM"}

---

- system.under.test: hTAS1R1 H308A/rTAS1R3 (Homo sapiens, UniProt Q7RTX1, H308A)
- Construct: UniProtKB number Q7RTX1–1)
- assay.notes: Calcium assay, hTAS1R1 mutant co-expressed with rTAS1R3

{"molecule.smiles": "N[C@@H](CCC(=O)N[C@@H](CS)C(=O)NCC(=O)O)C(=O)O", "EC50": "3.25 mM"}

---

- system.under.test: hTAS1R1/rTAS1R3 (UniProt Q7RTX1+Q923K1)
- Construct: UniProtKB number Q7RTX1–1); The cDNA coding region of rTAS1R3 was synthesized with optimized-codon usage for human expression; expressed in transfected cells; host or cells: HEK293T/17 (ATCC CRL-11268)
- assay.notes: Calcium assay (GCaMP6s, Gα15i2) in transiently transfected HEK293T/17 cells
- Type: cell-based, human, rat
- details: GSH alone; Fig. 6D
- Procedure: To this end, hTAS1R1/rTAS1R3 and the chimeric G protein Gα15i2 were transiently expressed in HEK293T cells. Cellular responses were assessed via calcium imaging using a fluorescent protein calcium biosensor (GCaMP6s) and compared with those of mock-transfected cells.
pEC50: −log10 of the molar value.

{"molecule.smiles": "N[C@@H](CCC(=O)N[C@@H](CS)C(=O)NCC(=O)O)C(=O)O", "system.under.test": "hTAS1R1/rTAS1R3 (UniProt Q7RTX1+Q923K1)", "pEC50": 2.36}

---

- system.under.test: hTAS1R1/rTAS1R3 (UniProt Q7RTX1+Q923K1)
- Construct: UniProtKB number Q7RTX1–1); The cDNA coding region of rTAS1R3 was synthesized with optimized-codon usage for human expression; expressed in transfected cells; host or cells: HEK293T/17 (ATCC CRL-11268)
- assay.notes: Calcium assay (GCaMP6s, Gα15i2) in transiently transfected HEK293T/17 cells
- Type: cell-based, human, rat
- details: GSH alone; Fig. 6C
pEC50: −log10 of the molar value.

{"molecule.smiles": "N[C@@H](CCC(=O)N[C@@H](CS)C(=O)NCC(=O)O)C(=O)O", "pEC50": 2.46}

---

- system.under.test: hTAS1R2/rTAS1R3 (UniProt Q8TE23+Q923K1)
- Construct: The cDNA coding region of rTAS1R3 was synthesized with optimized-codon usage for human expression; expressed in transfected cells
- Sequence (Q8TE23 20-839, one chain of several): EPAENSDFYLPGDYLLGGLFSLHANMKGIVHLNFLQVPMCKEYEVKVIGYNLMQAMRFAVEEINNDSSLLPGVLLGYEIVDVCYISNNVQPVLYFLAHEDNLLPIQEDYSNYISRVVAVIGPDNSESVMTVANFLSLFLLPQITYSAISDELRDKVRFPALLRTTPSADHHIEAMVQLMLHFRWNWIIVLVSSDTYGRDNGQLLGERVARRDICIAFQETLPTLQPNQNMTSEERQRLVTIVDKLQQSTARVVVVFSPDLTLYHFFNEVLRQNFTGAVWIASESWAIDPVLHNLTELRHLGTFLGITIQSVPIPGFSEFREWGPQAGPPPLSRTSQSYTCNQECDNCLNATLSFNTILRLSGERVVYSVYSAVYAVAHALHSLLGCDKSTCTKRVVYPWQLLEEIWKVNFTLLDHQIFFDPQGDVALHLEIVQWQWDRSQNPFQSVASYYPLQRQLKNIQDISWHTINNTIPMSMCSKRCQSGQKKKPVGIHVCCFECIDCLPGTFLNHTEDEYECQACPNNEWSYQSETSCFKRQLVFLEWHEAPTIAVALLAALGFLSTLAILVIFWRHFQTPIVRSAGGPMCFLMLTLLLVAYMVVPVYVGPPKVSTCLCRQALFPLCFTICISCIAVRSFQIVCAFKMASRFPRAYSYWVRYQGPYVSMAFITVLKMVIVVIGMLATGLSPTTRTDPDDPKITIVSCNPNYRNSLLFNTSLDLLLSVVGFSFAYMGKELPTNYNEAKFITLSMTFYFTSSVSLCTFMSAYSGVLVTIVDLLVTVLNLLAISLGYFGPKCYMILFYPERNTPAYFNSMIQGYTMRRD
- assay.notes: Calcium assay in transfected HEK293T/17 cells, sweet taste receptor
- Type: cell-based, human, rat
- details: WT; sucralose alone; Fig. 4A
pEC50: −log10 of the molar value.

{"molecule": "OC[C@H]1O[C@H](O[C@]2(CCl)O[C@H](CCl)[C@@H](O)[C@@H]2O)[C@H](O)[C@@H](O)[C@H]1Cl [sucralose, reference compound]", "system.under.test": "hTAS1R2/rTAS1R3 (UniProt Q8TE23+Q923K1)", "pEC50": 3.49}

---

- system.under.test: hTAS1R1/rTAS1R3(Mut1) (UniProt Q7RTX1+Q923K1, A277V/L68N/R278H/S168G/S302A)
- assay.notes: Calcium assay, mutated rTAS1R3 co-expressed with hTAS1R1

{"molecule": "N[C@@H](CCC(=O)N[C@@H](CS)C(=O)NCC(=O)O)C(=O)O", "system.under.test": "hTAS1R1/rTAS1R3(Mut1) (UniProt Q7RTX1+Q923K1, A277V/L68N/R278H/S168G/S302A)", "EC50": "9.01 mM"}
{"molecule": "CCCC(CCC)NC(=O)c1ccc2c(c1)OCO2 [S807, reference compound]", "system.under.test": "hTAS1R1/rTAS1R3(Mut1) (UniProt Q7RTX1+Q923K1, A277V/L68N/R278H/S168G/S302A)", "EC50": "0.00169 mM"}

---

- system.under.test: hTAS1R1 E301A/rTAS1R3 (UniProt Q7RTX1+Q923K1, E301A)
- Construct: UniProtKB number Q7RTX1–1); The cDNA coding region of rTAS1R3 was synthesized with optimized-codon usage for human expression
- Sequence (Q7RTX1 21-841 E301A): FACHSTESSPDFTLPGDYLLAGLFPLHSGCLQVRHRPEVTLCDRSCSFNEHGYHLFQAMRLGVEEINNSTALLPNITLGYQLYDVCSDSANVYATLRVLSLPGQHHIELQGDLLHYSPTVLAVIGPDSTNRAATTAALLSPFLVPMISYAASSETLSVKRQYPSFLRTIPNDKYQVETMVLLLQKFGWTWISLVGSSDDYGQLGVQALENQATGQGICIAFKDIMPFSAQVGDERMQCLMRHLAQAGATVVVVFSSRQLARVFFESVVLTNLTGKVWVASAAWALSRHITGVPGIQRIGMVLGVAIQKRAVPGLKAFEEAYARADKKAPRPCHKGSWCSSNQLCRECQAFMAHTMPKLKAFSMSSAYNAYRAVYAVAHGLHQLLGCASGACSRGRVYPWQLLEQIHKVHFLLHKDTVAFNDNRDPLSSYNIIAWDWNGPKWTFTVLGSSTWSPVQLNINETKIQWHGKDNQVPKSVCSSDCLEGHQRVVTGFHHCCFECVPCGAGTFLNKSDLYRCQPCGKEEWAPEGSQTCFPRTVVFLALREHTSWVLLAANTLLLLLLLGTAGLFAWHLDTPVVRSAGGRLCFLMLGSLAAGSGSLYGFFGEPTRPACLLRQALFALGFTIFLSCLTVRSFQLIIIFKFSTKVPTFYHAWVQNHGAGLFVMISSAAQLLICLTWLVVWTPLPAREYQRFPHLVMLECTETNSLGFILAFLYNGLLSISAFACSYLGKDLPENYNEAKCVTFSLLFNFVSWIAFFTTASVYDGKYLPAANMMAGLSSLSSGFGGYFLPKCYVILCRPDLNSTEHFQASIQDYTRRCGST
- Sequence (Q923K1 21-858): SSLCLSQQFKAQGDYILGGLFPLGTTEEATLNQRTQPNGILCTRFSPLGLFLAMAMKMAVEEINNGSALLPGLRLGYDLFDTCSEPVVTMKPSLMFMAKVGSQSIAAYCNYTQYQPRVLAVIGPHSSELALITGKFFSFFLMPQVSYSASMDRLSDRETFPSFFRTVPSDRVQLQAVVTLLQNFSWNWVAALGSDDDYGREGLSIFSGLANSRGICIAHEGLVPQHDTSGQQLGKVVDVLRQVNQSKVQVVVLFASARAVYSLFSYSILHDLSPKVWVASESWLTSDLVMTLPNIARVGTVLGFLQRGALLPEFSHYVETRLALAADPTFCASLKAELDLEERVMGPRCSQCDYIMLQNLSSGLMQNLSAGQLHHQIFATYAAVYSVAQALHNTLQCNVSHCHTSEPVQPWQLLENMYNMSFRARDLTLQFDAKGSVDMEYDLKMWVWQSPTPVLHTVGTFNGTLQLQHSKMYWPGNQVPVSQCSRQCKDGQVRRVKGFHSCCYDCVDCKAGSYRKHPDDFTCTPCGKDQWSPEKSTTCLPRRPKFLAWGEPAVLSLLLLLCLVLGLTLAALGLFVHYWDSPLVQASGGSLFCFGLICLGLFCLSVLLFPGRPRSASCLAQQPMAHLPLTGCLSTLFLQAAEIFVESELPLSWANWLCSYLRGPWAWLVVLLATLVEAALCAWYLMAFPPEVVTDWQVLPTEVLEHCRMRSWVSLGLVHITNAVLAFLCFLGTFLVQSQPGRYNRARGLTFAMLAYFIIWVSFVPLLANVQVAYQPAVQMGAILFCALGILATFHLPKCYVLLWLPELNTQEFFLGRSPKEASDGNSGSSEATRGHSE
- assay.notes: cell-based
pEC50: −log10 of the molar value.

{"molecule.smiles": "N[C@@H](CCC(=O)N[C@@H](CS)C(=O)NCC(=O)O)C(=O)O", "pEC50": "< 1.52"}
